Parameter: GI50. Scope: all listed entries.
test system: MDA-MB-435; test: NCI tumour cell line growth inhibition, 48 h
Activity calls are given as the source filed them. No stated cut-off is given here; in the data, active = GI50 up to about 1.1 µM and inactive = higher.

Some compounds with recorded GI50:
compound=N#C/C(=C\c1ccc([N+](=O)[O-])o1)c1n[nH]c(Cc2ccccc2)n1 test_value="1.67 µM (inactive)"
compound=CN(/N=C/c1ccc(OCc2cccc(COc3ccc(C=O)cc3)n2)cc1)c1cnn(-c2ccc(Cl)cc2Cl)c(=O)c1Cl test_value="> 100 µM (inactive)"
compound=CSc1cc(Cl)c(C)cc1S(=O)(=O)NC(=O)Nc1ccc(Cl)cc1 test_value="38.4 µM (inactive)"
compound=CCCCCCCCCCCC[C@H](O)[C@H]1CC[C@H]([C@H](O)CCCC[C@H](O)CCCCC[C@@H](O)CC2=C[C@H](C)OC2=O)O1 test_value="1.4 µM (inactive)"
compound=O=C1CC(=O)NC(NNS(=O)(=O)c2ccc(Cl)cc2)=N1 test_value="> 100 µM (inactive)"
compound=O=C(O)CC1(C(=O)O)CCCCC1 test_value="> 100 µM (inactive)"

Can you share its GI50? I mean this compound: NC(=O)N/N=C1/CCC(O)CC1CC(=O)O (stereo not given)
> 100 µM (inactive)

Can you share its GI50? I mean this compound: CCCCN(CCCC)CCC(O)c1cc2c(Cl)cc(Cl)cc2c2cc(C(F)(F)F)ccc12 (stereo not given)
12.6 µM (inactive)

Can you share its GI50? I mean this compound: C=CCCCC1SC2=C(CC)CCCN2C1=O (stereo not given)
84.3 µM (inactive)

Can you share its GI50? I mean this compound: COc1cc2c3c(c4cc(OC)c(OC)cc4c2cc1OC)C(=O)C1CCC(=O)N1C3 (stereo not given)
21.9 µM (inactive)

---

test system: TK-10; test: NCI tumour cell line growth inhibition, 48 h
Activity calls are given as the source filed them. Rule as the data show it: active = GI50 up to about 1.1 µM and inactive = higher.
A correct response names exactly one class from T (active), F (inactive)

// below: answered compounds
compound=O=C(O)c1ccccc1-c1ccccc1C(=O)Nc1ccc2c(c1)Cc1ccccc1-2 assigned_class=F
compound="NCCCCC(NC(=O)C(N)Cc1ccc(O)cn1)C(=O)O (stereo not given)" assigned_class=F
compound=Cc1cc(=O)[nH]c2c1C(=O)c1c(C)cc(=O)n(C)c1C2=O assigned_class=T
compound=CC1=CC(C)(C)N=C2SC(c3ccc(N)cc3)=NN12 assigned_class=F
compound=O=S1OC(c2ccccc2)(c2ccccc2)C(c2ccccc2)(c2ccccc2)O1 assigned_class=F

Query: recorded result category for `C/C(Cl)=N\OC(=O)Nc1ccc([N+](=O)[O-])cc1` in this test
F

Query: recorded result category for `Cc1ccc2nc(SCC(=O)N/N=C3\C(=O)Nc4ccccc43)n(-c3ccccc3)c(=O)c2c1` in this test
F

Query: recorded result category for CC(=O)c1c(-c2cccc3ccccc23)c(C#N)c(=S)n(C2OC(CO)C(O)C(O)C2O)c1C (stereo not given) in this test
F

Query: recorded result category for `CSC1=NS(=O)(=O)c2cc(C(=O)NN(C)C(=O)c3cc4c(cc3Cl)SC(SC)=NS4(=O)=O)c(Cl)cc2S1` in this test
F

Query: recorded result category for COc1ncnc2c(NC3OC(CO)C(O)C3O)ncnc12 (stereo not given) in this test
T

---

Parameter: GI50. Scope: all listed entries.
test system: CAKI-1; test: NCI tumour cell line growth inhibition, 48 h
Active and inactive are the calls of the source. Cut-off read from the data, not from the text of the source: active = GI50 up to about 1.1 µM and inactive = higher.

Some compounds with recorded GI50:
compound="COC(=O)C1Cc2cc3c(cc2C1=O)CCC3 (centres undefined)" value_type=GI50 test_value="> 100 µM (inactive)"
compound=CC(C)(C)C1=CC(=N/N=c2\scc(-c3ccccc3)n2Cc2ccccc2)C=C(C(C)(C)C)C1=O value_type=GI50 test_value="> 100 µM (inactive)"
compound="COc1cc([C@@H]2c3cc4c(cc3[C@@H](NC(=O)c3ccc(C(C)=O)cc3)C3COC(=O)[C@@H]32)OCO4)cc(OC)c1O (some centres undefined)" value_type=GI50 test_value="1.9 µM (inactive)"
compound=N=C(N)NS(=O)(=O)c1ccc(NC(=O)c2cccc3c(O)c4ccccc4nc23)cc1 value_type=GI50 test_value="> 100 µM (inactive)"
compound="O=C(Nc1c(Cl)cc([N+](=O)[O-])cc1Cl)C(=O)C(C1OC(=O)c2ccccc21)[N+](=O)[O-] (centres undefined)" value_type=GI50 test_value="> 100 µM (inactive)"
compound=Cc1noc(/N=C2\C=C(Nc3onc(C)c3C)C(=O)c3ccccc32)c1C value_type=GI50 test_value="> 100 µM (inactive)"

Can you share its GI50? I mean this compound: CC(C)CC(=O)CC(C)[C@]1(CCCOCc2ccccc2)C(=O)N2CCC3(C[C@@]24CCC[C@H]41)OCCO3 (some centres undefined)
> 10 µM (inactive)

Can you share its GI50? I mean this compound: CCOC(=O)C1=CN(C(=O)c2ccccc2)CCC1Cc1ccccc1 (centres undefined)
24.4 µM (inactive)

Can you share its GI50? I mean this compound: OC(CCN1CCN(CCOC(c2ccccc2)c2ccccc2)CC1)c1ccccc1 (centres undefined)
32 µM (inactive)
